B1: VH:VL chains; a variant is named by its letters at X, in order (parent)
chain 1: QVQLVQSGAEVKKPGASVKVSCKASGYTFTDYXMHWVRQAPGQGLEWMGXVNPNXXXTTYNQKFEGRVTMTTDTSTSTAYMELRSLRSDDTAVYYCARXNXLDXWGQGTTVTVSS
chain 2: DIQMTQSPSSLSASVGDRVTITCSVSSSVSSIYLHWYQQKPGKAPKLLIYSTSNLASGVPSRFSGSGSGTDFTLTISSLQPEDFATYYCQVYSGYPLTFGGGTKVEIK

variants of: B1; experiment: yeast display scFab, FACS + sequencing; details: with MET
The list shows a part of the results. How many sequences the whole screen found active is unknown.
Readout: antigen binding call

Known results for variants:
Mutation List	Readout	Observed Measurement
DGGGASSA	antigen binding call	no binding
YKGRGAAY	antigen binding call	binds
SAGEGDWV	antigen binding call	no binding
VTGGDSAS	antigen binding call	no binding
VRERGSWV	antigen binding call	binds
YRGGTSVD	antigen binding call	binds
YRGKASVD	antigen binding call	binds
SEARSDVY	antigen binding call	no binding

State its antigen binding call: `SETTDSSA`
no binding

State its antigen binding call: `YRGRDASS`
binds

State its antigen binding call: `YRERGSWV`
binds

State its antigen binding call: `VKGRGAAY`
binds

State its antigen binding call: `VEEEGSWV`
no binding

State its antigen binding call: `SARTDFWF`
no binding

State its antigen binding call: `FGATSFSV`
no binding

State its antigen binding call: `VETGNSLV`
no binding

State its antigen binding call: `YRGRDSAS`
binds

State its antigen binding call: `DREEGSWV`
no binding

State its antigen binding call: `SAKRDSAS`
no binding

State its antigen binding call: `YRTKAAVD`
binds

State its antigen binding call: `DAEATSLV`
no binding

State its antigen binding call: `VKGTGVAY`
no binding

Cited source: the emibetuzumab library of Makowski et al. (2022)
